experiment: In vivo microdialysis pharmacokinetics of LVFX without transporter inhibitors; set-up: species or system rat; settings: rat, CSF (lateral ventricle microdialysate), iv, 50 mg/kg, CSF; Group 1: vehicle solution of Tariquidar/Ko143 + LVFX 50 mg/kg; mean ± SD, n=3
assay endpoint: AUC(0-inf) (ng·h/mL)
Numeric only. Scale: ng·h/mL

Find the measured AUC(0-inf) of C[C@H]1COc2c(N3CCN(C)CC3)c(F)cc3c(=O)c(C(=O)O)cn1c23 [LVFX, Levofloxacin] and report it.
4080

---

test: In vivo microdialysis pharmacokinetics of LVFX without transporter inhibitors; parameters: species or system rat; conditions: rat, brain ECF, iv, 50 mg/kg, brain ECF; Group 4: LVFX 50 mg/kg alone; mean ± SD, n=3
assay endpoint: half-life (min)
Numeric only. Scale: min

Find the measured half-life of C[C@H]1COc2c(N3CCN(C)CC3)c(F)cc3c(=O)c(C(=O)O)cn1c23 [LVFX, Levofloxacin] and report it.
49

---

assay: In vivo microdialysis pharmacokinetics of LVFX without transporter inhibitors; set-up: species or system rat; conditions: rat, lateral ventricle CSF (microdialysate, unbound), iv, 50 mg/kg, lateral ventricle CSF; control group, vehicle + LVFX 50 mg/kg tail vein; mean ± SD, N=12
assay endpoint: Cmax (ng/mL)
Numeric only. Scale: ng/mL

Find the measured Cmax of "C[C@H]1COc2c(N3CCN(C)CC3)c(F)cc3c(=O)c(C(=O)O)cn1c23" and report it.
3650

---

test system: Multidrug resistance-associated proteins (MRPs); assay: In vivo microdialysis pharmacokinetics of LVFX with MRPs inhibitor MK571; parameters: species or system rat; details: rat, CSF (lateral ventricle microdialysate, unbound), intravenous, with MK571 20 mg/kg i.p.; CSF; MK571 group, MK571 20 mg/kg i.p. + LVFX 50 mg/kg; mean ± SD, N=5; read-out: AUC0–180 (converted)
assay endpoint: AUC(0-t) (ng·h/mL)
Numeric only. Scale: ng·h/mL

Give measured AUC(0-t) for C[C@H]1COc2c(N3CCN(C)CC3)c(F)cc3c(=O)c(C(=O)O)cn1c23 [LVFX, Levofloxacin] (Multidrug resistance-associated proteins (MRPs)).
5290

---

assay: In vivo microdialysis pharmacokinetics of LVFX without transporter inhibitors; design: species or system rat; settings: rat, brain ECF, iv, 50 mg/kg, brain ECF; Group 1: vehicle solution of Tariquidar/Ko143 + LVFX 50 mg/kg; mean ± SD, n=3
assay endpoint: half-life (min)
Numeric only. Scale: min

Find the measured half-life of "C[C@H]1COc2c(N3CCN(C)CC3)c(F)cc3c(=O)c(C(=O)O)cn1c23" and report it.
39.8

---

test: In vivo microdialysis pharmacokinetics of LVFX without transporter inhibitors; set-up: species or system rat; conditions: rat, brain ECF, iv, 50 mg/kg, brain ECF; Group 1: vehicle solution of Tariquidar/Ko143 + LVFX 50 mg/kg; mean ± SD, n=3
assay endpoint: MRT (h)
Numeric only. Scale: h

Find the measured MRT of "C[C@H]1COc2c(N3CCN(C)CC3)c(F)cc3c(=O)c(C(=O)O)cn1c23" and report it.
1.24

---

system: P-glycoprotein (P-gp); experiment: In vivo microdialysis pharmacokinetics of LVFX with P-gp inhibitor Tariquidar; design: species or system rat; conditions: rat, brain ECF (hippocampal microdialysate, unbound), intravenous, with Tariquidar 8 mg/kg i.p., 30 min before LVFX; brain ECF; TAR group, Tariquidar 8 mg/kg i.p. + LVFX 50 mg/kg; mean ± SD, N=5; read-out: AUC0–180 (converted)
assay endpoint: AUC(0-t) (ng·h/mL)
Numeric only. Scale: ng·h/mL

Find the measured AUC(0-t) of C[C@H]1COc2c(N3CCN(C)CC3)c(F)cc3c(=O)c(C(=O)O)cn1c23 [LVFX, Levofloxacin] and report it.
4100
